Target: EP4 (Mus musculus, UniProt P32240)
Construct: expressed in transfected cells; host or cells: CHO cells (membrane fraction)
Sequence (P32240 whole entry): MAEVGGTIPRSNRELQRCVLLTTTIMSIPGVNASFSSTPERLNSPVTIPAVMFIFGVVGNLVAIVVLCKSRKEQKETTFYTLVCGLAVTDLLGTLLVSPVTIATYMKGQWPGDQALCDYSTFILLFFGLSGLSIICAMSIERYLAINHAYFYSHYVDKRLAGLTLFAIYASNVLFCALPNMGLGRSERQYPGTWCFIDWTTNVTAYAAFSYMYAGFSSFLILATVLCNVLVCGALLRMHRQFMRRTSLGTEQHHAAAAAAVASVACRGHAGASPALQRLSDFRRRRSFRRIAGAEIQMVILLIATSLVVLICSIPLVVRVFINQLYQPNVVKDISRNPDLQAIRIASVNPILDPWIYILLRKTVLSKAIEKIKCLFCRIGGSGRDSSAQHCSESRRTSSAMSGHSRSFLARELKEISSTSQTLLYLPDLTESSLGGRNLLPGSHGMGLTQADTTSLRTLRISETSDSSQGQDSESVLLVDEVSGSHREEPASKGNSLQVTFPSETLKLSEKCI
Assay: Binding assay using cell expressing the prostanoid receptor subtypes ([3H]-PGE2 competition, CHO membrane fraction)
Details: membrane fraction of CHO cell expressing mouse EP4, Ki=IC50/(1+([C]/Kd))
pKi: −log10 of the molar value. Structures can show the parent of a compound that is named as a salt.

compound: CC(C(=O)Nc1ccncc1Cc1ccccc1C(=O)O)c1cccc2ccccc12 (stereo not shown) [Example 2(15), monohydrochloride]
pKi: 8.19

====

Target: EP4 (Mus musculus, UniProt P32240)
Test: EP4 antagonizing activity assay using the cell expressing the prostanoid receptor subtypes (cAMP production in CHO cells)
Settings: inhibition of cAMP production with 100 nM PGE2 as agonist; CHO cell expressing receptor subtype

molecule: CC(C(=O)Nc1ccccc1Cc1ccccc1C(=O)O)c1cccc2ccccc12 (stereo not shown) [Example 2(1)]
IC50 / nM: 10
